Tested on: 435261-313-R-J1-PDC tumor spheroid viability;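 note: spheroids exposed to compounds for 7 days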
Assay: Anticancer human tumor 435261-313-R-J1-PDC patient-derived colon adenocarcinoma cell line growth inhibition [PI3K]
Settings: curve of first compound; second compound 0.00316 µM; spheroids with HUVEC and MSC
Source text: Combinatorial screen of targeted agents with the PI3K inhibitors inavolisib, alpelisib, duvelisib, and copanlisib in multi-cell type tumor spheroids A high-throughput screen of multi-cell type tumor spheroids was designed to identify active combinations of targeted small molecules and PI3K pathway inhibitors. […] Compounds. […] If the clinical Cmax for an agent had not been determined, the highest concentration tested was 10 microM. […]
Observable: IC50 (µM)
The reply should contain only the number, in µM.

| Compound | Unit text | IC50 |
| --- | --- | --- |
| CC1(C)CCC(Nc2ncc(C(F)(F)F)c(-c3c[nH]c4c(P(C)(C)=O)c(C#N)ccc34)n2)CN1 (stereo not given) + CC(Nc1ccc2c(c1)OCCn1cc(N3C(=O)OCC3C(F)F)nc1-2)C(N)=O | µM | 1.2 |

Attention now shifts to the item below.
State IC50 on 435261-313-R-J1-PDC tumor spheroid viability. Entry: CCCS(=O)(=O)Nc1ccc(F)c(C(=O)c2c[nH]c3ncc(-c4ccc(Cl)cc4)cc23)c1F + COc1c(OCCCN2CCOCC2)ccc2c3n(c(=NC(=O)c4cnc(N)nc4)nc12)CCN3
4.61
